Assay: total protein half-life in vivo (active degradation + dilution); higher = more stable protein
Conditions: wild type E. coli NCM3722; growth: N-lim chemostat; doubling time 6 h
// reported total protein half-life in vivo for each item listed
reported.endpoint: total protein half-life in vivo (h)

INSERT INTO results (polymer_sequence, reported_result) VALUES
  ('MKQPGEELQETLTELDDRAVVDYLIKNPEFFIRNARAVEAIRVPHPVRGTVSLVEWHMARARNHIHVLEENMALLMEQAIANEGLFYRLLYLQRSLTAASSLDDMLMRFHRWARDLGLAGASLRLFPDRWRLGAPSNHTHLALSRQSFEPLRIQRLGQEQHYLGPLNGPELLVVLPEAKAVGSVAMSMLGSDADLGVVLFTSRDASHYQQGQGTQLLHEIALMLPELLERWIERV', 1.33),
  ('MPYKTKSDLPESVKHVLPSHAQDIYKEAFNSAWDQYKDKEDRRDDASREETAHKVAWAAVKHEYAKGDDDKWHKKS [P0AE63]', 3.3),
  ('MLDQVCQLARNAGDAIMQVYDGTKPMDVVSKADNSPVTAADIAAHTVIMDGLRTLTPDVPVLSEEDPPGWEVRQHWQRYWLVDPLDGTKEFIKRNGEFTVNIALIDHGKPILGVVYAPVMNVMYSAAEGKAWKEECGVRKQIQVRDARPPLVVISRSHADAELKEYLQQLGEHQTTSIGSSLKFCLVAEGQAQLYPRFGPTNIWDTAAGHAVAAAAGAHVHDWQGKPLDYTPRESFLNPGFRVSIY', 4.76),
  ('MKYRIALAVSLFALSAGSYATTLCQEKEQNILKEISYAEKHQNQNRIDGLNKALSEVRANCSDSQLRADHQKKIAKQKDEVAERQQDLAEAKQKGDADKIAKRERKLAEAQEELKKLEARDY', 5.07);

====

Experiment: total protein half-life in vivo (active degradation + dilution); higher = more stable protein
Settings: wild type E. coli NCM3722; growth: N-lim chemostat; doubling time 6 h
Each item that follows carries a reported total protein half-life in vivo.
reported.endpoint: total protein half-life in vivo (h)

INSERT INTO measurements (polymer_sequence, reported_endpoint, reported_result) VALUES
  ('MMLSKKNSETLENFSEKLEVEGRSLWQDARRRFMHNRAAVASLIVLVLIALFVILAPMLSQFAYDDTDWAMMSSAPDMESGHYFGTDSSGRDLLVRVAIGGRISLMVGVAAALVAVVVGTLYGSLSGYLGGKVDSVMMRLLEILNSFPFMFFVILLVTFFGQNILLIFVAIGMVSWLDMARIVRGQTLSLKRKEFIEAAQVGGVSTSGIVIRHIVPNVLGVVVVYASLLVPSMILFESFLSFLGLGTQEPLSSWGALLSDGANSMEVSPWLLLFPAGFLVVTLFCFNFIGDGLRDALDPKDR [P0AFH6]', 'total protein half-life in vivo', 5.17),
  ('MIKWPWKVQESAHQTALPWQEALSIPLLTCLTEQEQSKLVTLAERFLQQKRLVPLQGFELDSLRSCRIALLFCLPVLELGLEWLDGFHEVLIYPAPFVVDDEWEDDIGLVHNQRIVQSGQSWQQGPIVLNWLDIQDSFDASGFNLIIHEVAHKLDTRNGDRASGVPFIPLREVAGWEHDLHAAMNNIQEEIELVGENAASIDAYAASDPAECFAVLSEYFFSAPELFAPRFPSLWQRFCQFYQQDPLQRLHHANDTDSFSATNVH', 'total protein half-life in vivo', 1.53),
  ('MFNSDNLRLDGKCAIITGAGAGIGKEIAITFATAGASVVVSDINADAANHVVDEIQQLGGQAFACRCDITSEQELSALADFAISKLGKVDILVNNAGGGGPKPFDMPMADFRRAYELNVFSFFHLSQLVAPEMEKNGGGVILTITSMAAENKNINMTSYASSKAAASHLVRNMAFDLGEKNIRVNGIAPGAILTDALKSVITPEIEQKMLQHTPIRRLGQPQDIANAALFLCSPAASWVSGQILTVSGGGVQELN [P0AET8]', 'total protein half-life in vivo', 4.57),
  ('MLELLFLLLPVAAAYGWYMGRRSAQQNKQDEANRLSRDYVAGVNFLLSNQQDKAVDLFLDMLKEDTGTVEAHLTLGNLFRSRGEVDRAIRIHQTLMESASLTYEQRLLAIQQLGRDYMAAGLYDRAEDMFNQLTDETDFRIGALQQLLQIYQATSEWQKAIDVAERLVKLGKDKQRVEIAHFYCELALQHMASDDLDRAMTLLKKGAAADKNSARVSIMMGRVFMAKGEYAKAVESLQRVISQDRELVSETLEMLQTCYQQLGKTAEWAEFLQRAVEENTGADAELMLADIIEARDGSEAAQVYITRQLQRHPTMRVFHKLMDYHLNEAEEGRAKESLMVLRDMVGEKVRSKPRYRCQKCGFTAYTLYWHCPSCRAWSTIKPIRGLDGL [P0AB58]', 'total protein half-life in vivo', 6.1),
  ('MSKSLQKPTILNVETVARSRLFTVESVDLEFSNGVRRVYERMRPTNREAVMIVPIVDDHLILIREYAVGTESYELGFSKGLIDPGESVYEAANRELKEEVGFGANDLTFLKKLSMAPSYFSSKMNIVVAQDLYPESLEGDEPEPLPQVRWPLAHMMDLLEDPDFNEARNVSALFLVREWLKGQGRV', 'total protein half-life in vivo', 3.9);

====

Overview of reported total protein half-life in vivo across a group of sequences:
Experiment: total protein half-life in vivo (active degradation + dilution); higher = more stable protein
Details: wild type E. coli NCM3722; growth: N-lim chemostat; doubling time 12 h
reported.endpoint: total protein half-life in vivo (h)

INSERT INTO results (polymer_sequence, reported_endpoint, value_units, reported_result) VALUES
  ('MSLINTKIKPFKNQAFKNGEFIEITEKDTEGRWSVFFFYPADFTFVCPTELGDVADHYEELQKLGVDVYAVSTDTHFTHKAWHSSSETIAKIKYAMIGDPTGALTRNFDNMREDEGLADRATFVVDPQGIIQAIEVTAEGIGRDASDLLRKIKAAQYVASHPGEVCPAKWKEGEATLAPSLDLVGKI [P0AE08]', 'total protein half-life in vivo', 'h', 2.61),
  ('MPKFRVSLFSLALMLAVPFAPQAVAKTAAATTASQPEIASGSAMIVDLNTNKVIYSNHPDLVRPIASISKLMTAMVVLDARLPLDEKLKVDISQTPEMKGVYSRVRLNSEISRKDMLLLALMSSENRAAASLAHHYPGGYKAFIKAMNAKAKSLGMNNTRFVEPTGLSVHNVSTARDLTKLLIASKQYPLIGQLSTTREDMATFSNPTYTLPFRNTNHLVYRDNWNIQLTKTGFTNAAGHCLVMRTVINNKPVALVVMDAFGKYTHFADASRLRTWIETGKVMPVPAAALSYKKQKAAQMAAAGQTAQND [P0AFI5]', 'total protein half-life in vivo', 'h', 3.05);

====

// total protein half-life in vivo lookup, one value per entry
Assay: total protein half-life in vivo (active degradation + dilution); higher = more stable protein
Details: wild type E. coli NCM3722; growth: P-lim chemostat; doubling time 6 h
reported.endpoint: total protein half-life in vivo (h)

INSERT INTO results (polymer_sequence, reported_endpoint, reported_result) VALUES
  ('MSTTNHDHHIYVLMGVSGSGKSAVASEVAHQLHAAFLDGDFLHPRRNIEKMASGEPLNDDDRKPWLQALNDAAFAMQRTNKVSLIVCSALKKHYRDLLREGNPNLSFIYLKGDFDVIESRLKARKGHFFKTQMLVTQFETLQEPGADETDVLVVDIDQPLEGVVASTIEVIKKGK', 'total protein half-life in vivo', 4.1),
  ('MQIIFGEKCVSLLRLFFAAVLMLWCAQTAAYSGQCHTTQGNPYIGVNFGVKTLEEEANTAGVVKDKFYQWNESNDYYVSCDCDKDNVRSGRWAFAADSPLVYLGDNWYKINDYLAAKVLLQVKGSSPTAVPFENVGTGGDTRWHICDPGGQRLGGQGASGNSGSFSLKILQPFVGSVVIPPMALARLYECYNIPAGDSCTTTGTPVLVYYLSGTINSLGSCSVNAGETIEVDLGDVFAANFRVVGHKPLGARTAELAIPVRCNTGNAGLVNVNLSLTATTDPSYPQAIKTSRPGVGVVVTDSQNNIISPAGGTLPLSIPDDADSIARMNVYPVSTTGVPPETGRFEATATVRINFD', 'total protein half-life in vivo', 6),
  ('MSVIETATVPLAQQQADALLNVKDLRVTFSTPDGDVTAVNDLNFSLRAGETLGIVGESGSGKSQTAFALMGLLAANGRIGGSATFNGREILNLPEHELNKLRAEQISMIFQDPMTSLNPYMRVGEQLMEVLMLHKNMSKAEAFEESVRMLDAVKMPEARKRMKMYPHEFSGGMRQRVMIAMALLCRPKLLIADEPTTALDVTVQAQIMTLLNELKREFNTAIIMITHDLVVVAGICDKVLVMYAGRTMEYGNARDVFYQPVHPYSIGLLNAVPRLDAEGETMLTIPGNPPNLLRLPKGCPFQPRCPHAMEICSSAPPLEEFTPGRLRACFKPVEELL', 'total protein half-life in vivo', 5.71),
  ('MKILVIGPSWVGDMMMSQSLYRTLQARYPQAIIDVMAPAWCRPLLSRMPEVNEAIPMPLGHGALEIGERRKLGHSLREKRYDRAYVLPNSFKSALVPFFAGIPHRTGWRGEMRYGLLNDVRVLDKEAWPLMVERYIALAYDKGIMRTAQDLPQPLLWPQLQVSEGEKSYTCNQFSLSSERPMIGFCPGAEFGPAKRWPHYHYAELAKQLIDEGYQVVLFGSAKDHEAGNEILAALNTEQQAWCRNLAGETQLDQAVILIAACKAIVTNDSGLMHVAAALNRPLVALYGPSSPDFTPPLSHKARVIRLITGYHKVRKGDAAEGYHQSLIDITPQRVLEELNALLLQEEA', 'total protein half-life in vivo', 6.54),
  ('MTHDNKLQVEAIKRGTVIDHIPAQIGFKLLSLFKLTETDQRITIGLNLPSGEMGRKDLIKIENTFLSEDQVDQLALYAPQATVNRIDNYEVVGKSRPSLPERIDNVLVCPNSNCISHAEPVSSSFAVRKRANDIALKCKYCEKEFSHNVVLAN [P0A7F3]', 'total protein half-life in vivo', 5.64),
  ('MWYQKTLTLSAKSRGFHLVTDEILNQLADMPRVNIGLLHLLLQHTSASLTLNENCDPTVRHDMERFFLRTVPDNGNYEHDYEGADDMPSHIKSSMLGTSLVLPVHKGRIQTGTWQGIWLGEHRIHGGSRRIIATLQGE [P0AF48]', 'total protein half-life in vivo', 5.51);
